test: probe aShh binding to arrayed compounds – biochemical, biotinylated probe, 635/667 nm fluorescence, primary screen (AID 1114); settings: small-molecule microarray, higher = more signal;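 further: probe is biotin-labelled aShh protein from a stem cell growth factor screen; measures binding of labelled protein to compounds printed on the slide; score merges feature fluorescence at 667 nm with signal-to-noise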
// composite z-score lookup, one value per entry

Worked examples, 3 compounds total:
COc1ccc(C(=O)Nc2cccc(CN3C(=O)[C@]4(O[C@H](CC(=O)N5Cc6ccccc6C[C@H]5CO)[C@@H]([Si](C)(C)c5ccc(OC)cc5)[C@@H]4C)c4ccccc43)c2)cc1 : 0.0639
COc1ccc([Si](C)(C)[C@@H]2[C@@H](CC(=O)N3Cc4ccccc4C[C@H]3CO)O[C@]3(C(=O)N(Cc4cccc(N5CCOC5=O)c4)c4ccccc43)[C@H]2C)cc1 : -0.0243
CC1CC/C=C\[C@H]2OC34C=CCN(C(C)(C)C)C(=O)[C@H]3N(CCCO)C(=O)[C@@H]4C2C(=O)O1 (some centres undefined) : 0.0278

**Query** For COCCCNC(=O)[C@@H]1c2ccccc2C(=O)N(Cc2ccc(OC(F)(F)F)cc2)[C@H]1c1ccc(CO)cc1 , what is its reported composite z-score?
**Result** -0.0035

**Query** Moving on to the next compound: COc1ccccc1CN1C(=O)c2ccccc2[C@](Cc2ccccc2I)(C(=O)NCC(C)C)[C@@H]1c1ccc(CO)cc1
**Result** -0.0243

====

test: budding yeast growth modifiers under rapamycin – strain BY4716, OD600, 96 h, primary screen (AID 1091); further: test concentration not given here; details: S. cerevisiae BY4716 + rapamycin, higher = more signal, called active from +8 up or from −8 down
Group membership follows z-score per the scheme low: < -0.2; medium: ≥ -0.2 and < 1; high: ≥ 1

Answered cases to consult:
CC(C)C[C@@H]1NC(=O)[C@@]23C(=O)N[C@@H](Cc4ccccc4)C2[C@H](C)[C@@]2(C)O[C@H]2C3/C=C/C/C=C\CNC(=O)CNC1=O (some centres undefined) : medium
COCCCNC(=O)[C@@]1(CCC(=O)OC(C)(C)C)COC(c2ccc(OCCCO)cc2)=N1 : low
C=CCN1C(=O)[C@]2(O[C@H](CCn3cc([C@H](O)c4ccccc4)nn3)[C@@H]([Si](C)(C)c3ccc(OC)cc3)[C@@H]2C)c2cc(NC(=O)c3ccc(OC)cc3)ccc21 : medium
COCCOC(=O)N1C(=O)[C@@]2(c3cc(C#CCNC(N)=O)ccc31)[C@H](C(=O)Nc1nc3ccccc3s1)[C@H]1C(=O)O[C@H](c3ccccc3)[C@H](c3ccccc3)N1[C@@H]2c1ccccc1OCCO : high

Please look at the following compound next.
**Query** Which class is correct for the following compound? CCC(CC)C(O)C1C=CC2C(=O)N(c3ccccc3)C(=O)C2N1Nc1ccccc1F (centres undefined)
**Result** medium

====

// z-score lookup, one value per entry
assay: forskolin-driven CRE-LacZ activity in PC12 – cell-based, CRE-LacZ reporter, forskolin-stimulated, primary screen (AID 1146); settings: luminescence, 4.5 h, higher = more signal, called active from +8 up or from −8 down;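 further: PC12 cells with 6xCRE LacZ reporter stimulated by forskolin 10 µM; beta-galactosidase reporter signal reflecting CREB driven transcription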
Just the number, please, no unit after it.

Worked examples, 4 compounds total:
C[C@@H]1NC(=O)C([C@@H](C)OCc2ccccc2)NC(=O)[C@@]23C(=O)N[C@@H](Cc4ccccc4)C2[C@H](C)[C@@]2(C)O[C@H]2C3/C=C/C/C=C\CNC1=O (some centres undefined) : 0.428
C=C1C(=O)C=C2CN(C(=O)c3ccccc3)[C@@](Cc3ccc(OC)cc3)(C(=O)OC)[C@@H]12 : 0.2
C=CCC(OC(C)=O)[C@@H]1[C@@H](N(Cc2cccc3ccccc23)C(=O)Cc2ccc(OC)cc2)c2cc(OCCCO)ccc2N1C(=O)Cc1ccc2ccccc2c1 (some centres undefined) : 1.38
C=CCNC(=O)[C@@H]1[C@H]2C(=O)O[C@H](c3ccccc3)[C@H](c3ccccc3)N2[C@H](c2ccc(OCCO)cc2)[C@@]12C(=O)Nc1ccc(C#CC3(O)CCCCCC3)cc12 : 0.856

**Query** For C[C@@H]1ON(c2ccccc2)[C@H](c2ccccc2)[C@H]1C(=O)O , what is its reported z-score?
**Result** 0.411

**Query** Moving on to the next compound: CCCCC(O)C1C=CC2C(=O)N(c3ccccc3)C(=O)C2N1Nc1ccc(C#N)cc1 (centres undefined)
**Result** 0.719

**Query** Moving on to the next compound: C=CCC(OC(C)=O)[C@@H]1[C@@H](N(Cc2ccc(-c3cccc(C(F)(F)F)c3)o2)C(=O)Cc2ccc(F)cc2)c2cc(OCCCO)ccc2N1C(=O)Cc1ccc2ccccc2c1 (some centres undefined)
**Result** 0.767

**Query** Moving on to the next compound: COC(=O)[C@@]1(Cc2ccccc2)[C@H]2c3cc(C(=O)N(C)C)n(Cc4ccc(S(C)(=O)=O)cc4)c3C[C@H]2CN1C(=O)c1ccccc1
**Result** 1.02

**Query** Moving on to the next compound: COc1ccc([Si](C)(C)[C@H]2[C@H](CC(=O)N3Cc4ccccc4C[C@H]3CO)O[C@@]3(C(=O)N(C)c4c(Br)cc(C)cc43)[C@@H]2C)cc1
**Result** -1.29

**Query** Moving on to the next compound: COCCCNC(=O)[C@@]1(Sc2ccc(C)cc2)CC(=O)N(Cc2ccccc2C(F)(F)F)[C@@H]1c1ccc(CO)cc1I
**Result** 0.421

**Query** Moving on to the next compound: COCCOC(=O)N1C(=O)[C@@]2(c3cc(C#CCC(C(=O)OC)C(=O)OC)ccc31)[C@H](c1ccc(O)cc1)N1[C@H](c3ccccc3)[C@H](c3ccccc3)OC(=O)[C@H]1[C@@H]2C(=O)Nc1nc2ccccc2s1
**Result** -0.521

**Query** Moving on to the next compound: CCOC(=O)C[C@H]1[C@H](OC(=O)c2cc3ccccc3oc2=O)[C@@H](NC(=O)CC(C)C)c2cc(OCCCO)ccc2N1C(=O)Cc1ccc(OC)cc1
**Result** -0.505

**Query** Moving on to the next compound: C=C(CCCC)C(=O)CC[C@@H](OC(=O)c1ccccc1-c1ccccc1C(=O)O)c1ccccc1OCCO
**Result** 2.06

**Query** Moving on to the next compound: COc1ccc([Si](C)(C)[C@@H]2[C@@H](CC(=O)N3CCC[C@H]3CO)O[C@]3(C(=O)N(Cc4cccc(N5CCCCC5=O)c4)c4ccccc43)[C@H]2C)cc1
**Result** -0.95
